Target: Phosphatidylinositol 4,5-bisphosphate 3-kinase catalytic subunit alpha isoform (Homo sapiens)
Sequence (P42336 whole entry, canonical isoform): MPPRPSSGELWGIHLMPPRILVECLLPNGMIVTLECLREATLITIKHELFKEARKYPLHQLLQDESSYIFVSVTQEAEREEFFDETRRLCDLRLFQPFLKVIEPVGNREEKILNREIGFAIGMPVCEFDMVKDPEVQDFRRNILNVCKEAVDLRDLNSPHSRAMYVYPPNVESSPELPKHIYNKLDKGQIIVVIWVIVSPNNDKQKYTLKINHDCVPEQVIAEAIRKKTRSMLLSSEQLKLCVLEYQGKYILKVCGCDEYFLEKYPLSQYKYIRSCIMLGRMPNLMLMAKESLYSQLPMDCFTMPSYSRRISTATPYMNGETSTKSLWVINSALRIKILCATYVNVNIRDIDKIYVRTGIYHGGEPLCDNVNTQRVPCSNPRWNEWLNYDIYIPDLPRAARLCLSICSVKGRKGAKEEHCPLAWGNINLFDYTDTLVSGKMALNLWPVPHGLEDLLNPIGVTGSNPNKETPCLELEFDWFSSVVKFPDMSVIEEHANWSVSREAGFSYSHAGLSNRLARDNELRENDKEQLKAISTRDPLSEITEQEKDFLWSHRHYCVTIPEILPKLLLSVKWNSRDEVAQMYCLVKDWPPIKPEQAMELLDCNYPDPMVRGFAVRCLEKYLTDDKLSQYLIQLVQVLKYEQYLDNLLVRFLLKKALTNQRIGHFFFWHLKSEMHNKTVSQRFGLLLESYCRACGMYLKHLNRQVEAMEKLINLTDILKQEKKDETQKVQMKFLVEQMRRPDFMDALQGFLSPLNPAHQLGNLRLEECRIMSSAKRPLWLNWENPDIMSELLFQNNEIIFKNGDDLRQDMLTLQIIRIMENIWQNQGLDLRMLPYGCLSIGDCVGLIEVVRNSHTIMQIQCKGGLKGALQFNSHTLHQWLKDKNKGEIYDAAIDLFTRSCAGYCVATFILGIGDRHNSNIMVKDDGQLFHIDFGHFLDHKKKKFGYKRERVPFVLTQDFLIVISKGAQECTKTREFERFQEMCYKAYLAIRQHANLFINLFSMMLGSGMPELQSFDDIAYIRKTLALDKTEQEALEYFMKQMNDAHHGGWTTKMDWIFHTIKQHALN
Assay: Inhibition of full-length PI3Kalpha (unknown origin) expressed in baculovirus infected Sf9 cells by ADP-Glo luminescent kinase assay
pIC50: −log10 of the molar value.

Molecular string: Cn1cc(CNCC2CCN(c3ncc(C(=O)NO)cn3)CC2)c2ccccc21
pIC50: 7.72

* * *

Target: Phosphatidylinositol 4,5-bisphosphate 3-kinase catalytic subunit alpha isoform (Homo sapiens)
Test: Inhibition of PI3Kalpha (unknown origin)
pIC50: −log10 of the molar value.
Outcome measure: pIC50

Molecular string: Cc1c(Cc2cccc(N(C)S(=O)(=O)CCCNCCCCCC(=O)N3CCN(c4nc(N5CCOCC5)nc(-n5c(C(F)F)nc6ccccc65)n4)CC3)c2)c(=O)oc2cc(OC(=O)N(C)C)ccc12
Outcome measure: pIC50
Value observed: 6.76

* * *

Target: Phosphatidylinositol 4,5-bisphosphate 3-kinase catalytic subunit alpha isoform (Homo sapiens)
Assay: Inhibition of PI3Kalpha (unknown origin) expressed in baculovirus expression system using L-alpha-phosphatidylinositol as substrate by luminescence assay
pIC50: −log10 of the molar value.
Collected pIC50 values appear next to each entry.

Molecular string: COc1ncc(-c2cc(OCCN(C)c3ncc(C(=O)NO)cn3)c3nc(N)nc(C)c3c2)cc1C
pIC50: 6.65
--
Molecular string: COc1c(OCCCCCC(=O)NO)ccc2c1N=C(NC(=O)c1ccccc1)N1CCN=C21
pIC50: 7.30
--
Molecular string: COc1ncc(-c2cc(OCCCCCCC(=O)NO)c3nc(N)nc(C)c3c2)cc1F
pIC50: 7.38

* * *

Biological target: Phosphatidylinositol 4,5-bisphosphate 3-kinase catalytic subunit delta isoform (Homo sapiens, UniProt O00329)
Sequence (O00329 whole entry): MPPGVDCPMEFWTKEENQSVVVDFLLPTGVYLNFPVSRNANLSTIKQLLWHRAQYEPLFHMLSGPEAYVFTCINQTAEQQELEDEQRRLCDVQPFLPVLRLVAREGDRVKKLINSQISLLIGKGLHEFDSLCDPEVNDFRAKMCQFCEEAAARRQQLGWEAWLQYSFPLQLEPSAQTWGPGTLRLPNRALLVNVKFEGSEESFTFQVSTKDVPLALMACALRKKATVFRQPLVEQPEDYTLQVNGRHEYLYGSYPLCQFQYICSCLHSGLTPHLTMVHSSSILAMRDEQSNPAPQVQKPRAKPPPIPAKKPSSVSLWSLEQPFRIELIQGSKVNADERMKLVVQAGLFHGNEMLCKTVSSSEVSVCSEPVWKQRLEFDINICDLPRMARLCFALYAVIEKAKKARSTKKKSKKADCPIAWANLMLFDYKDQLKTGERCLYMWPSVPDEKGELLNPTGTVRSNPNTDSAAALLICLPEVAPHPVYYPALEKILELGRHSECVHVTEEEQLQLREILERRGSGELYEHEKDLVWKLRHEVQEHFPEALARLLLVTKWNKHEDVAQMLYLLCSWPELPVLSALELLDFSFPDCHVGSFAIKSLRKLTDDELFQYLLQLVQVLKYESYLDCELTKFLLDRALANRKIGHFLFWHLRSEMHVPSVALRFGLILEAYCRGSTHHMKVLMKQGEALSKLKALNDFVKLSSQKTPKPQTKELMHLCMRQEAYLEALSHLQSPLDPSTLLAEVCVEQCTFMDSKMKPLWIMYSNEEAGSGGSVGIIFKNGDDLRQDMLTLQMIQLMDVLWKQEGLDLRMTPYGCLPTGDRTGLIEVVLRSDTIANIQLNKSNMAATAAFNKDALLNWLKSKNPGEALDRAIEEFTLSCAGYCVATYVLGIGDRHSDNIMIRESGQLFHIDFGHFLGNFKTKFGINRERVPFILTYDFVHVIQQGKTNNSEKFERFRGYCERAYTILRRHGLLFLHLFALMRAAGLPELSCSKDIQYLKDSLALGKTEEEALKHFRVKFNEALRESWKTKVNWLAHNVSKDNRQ
Experiment: Inhibition of PI3Kdelta (unknown origin)
Outcome measure: IC50 (µM)

Molecular string: O=C(NOCCOCCOCCOCCN1CCN(c2nc(N3CCOCC3)nc(-n3c(C(F)F)nc4ccccc43)n2)CC1)c1ccc(F)c(F)c1Nc1ccc(I)cc1F
Value observed: 0.182
